# target.or.system: human FAAH (Homo sapiens)
# Construct: host or cells: COS-7 cells, transient transfection; 13,000 g membrane fraction solubilised in 1% Triton X-100
# Sequence (O00519 whole entry): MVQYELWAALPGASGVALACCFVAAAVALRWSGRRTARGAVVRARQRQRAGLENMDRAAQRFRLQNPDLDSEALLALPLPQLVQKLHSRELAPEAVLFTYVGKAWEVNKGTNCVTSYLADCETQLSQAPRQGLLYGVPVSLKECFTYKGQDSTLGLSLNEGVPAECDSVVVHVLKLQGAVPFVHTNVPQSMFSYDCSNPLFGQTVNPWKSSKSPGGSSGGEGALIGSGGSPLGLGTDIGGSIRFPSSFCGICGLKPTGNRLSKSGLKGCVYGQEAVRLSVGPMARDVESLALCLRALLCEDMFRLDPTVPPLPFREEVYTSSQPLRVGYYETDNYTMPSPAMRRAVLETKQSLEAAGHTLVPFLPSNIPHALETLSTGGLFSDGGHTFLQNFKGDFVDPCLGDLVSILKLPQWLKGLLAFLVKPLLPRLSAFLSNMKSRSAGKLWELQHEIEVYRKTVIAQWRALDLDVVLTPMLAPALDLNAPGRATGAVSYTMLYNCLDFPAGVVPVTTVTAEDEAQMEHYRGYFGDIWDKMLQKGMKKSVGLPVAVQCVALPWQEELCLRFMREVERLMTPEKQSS
# assay.name: Human FAAH biochemical inhibition assay (AMC arachidonoyl amide fluorescence)
# study.conditions: Table 2, human FAAH (no asterisk); read-out: Activity (Ki)
pKi: −log10 of the molar value.

- molecule: "OB(O)c1ccc(OCCc2cccnc2)cc1F"
  target.or.system: "human FAAH (Homo sapiens)"
  pKi: "> 8.00"
- molecule: "[O-][S+](Cc1ccc(B(O)O)c(F)c1)c1ccccc1 (centres unmarked)"
  target.or.system: "human FAAH (Homo sapiens)"
  pKi: "< 6.00"
- molecule: "C[N+]12CC(=O)O[B-]1(c1ccc(-c3cccc(F)c3)cc1F)OC(=O)C2 (centres unmarked)"
  target.or.system: "human FAAH (Homo sapiens)"
  pKi: "> 8.00"
- molecule: "CC1(C)OB(c2ccc(OCCCc3ccccc3)cc2)OC1(C)C"
  target.or.system: "human FAAH (Homo sapiens)"
  pKi: "7.00 to 8.00"
- molecule: "OB(O)c1ccc(COCC23CC4CC(CC(C4)C2)C3)cc1"
  target.or.system: "human FAAH (Homo sapiens)"
  pKi: "7.00 to 8.00"
